Target: thrombin (Homo sapiens, UniProt P00734)
Experiment: Measurement of the thrombin inhibition in buffer
Format: biochemical
Conditions: human thrombin 0.06 nmol/l in Tris buffer pH 7.4, 22° C., substrate Boc-Asp(OBzl)-Pro-Arg-AMC; in some cases means of individual determinations
pIC50: −log10 of the molar value.
Endpoint Name: pIC50

Compound	pIC50
COc1cc(C(=O)N2CC3(CC3)NC(=O)C2C)cc2nc(NCc3cc(Cl)ccn3)oc12 (racemic) [Example 76]	7.72

[P] COc1cc(C(=O)N2CC(C)OCC2C2CC(O)C2)cc2nc(NCc3cc(Cl)ccn3)oc12 (single isomer, unassigned) [Example 48]
[Q] COc1cc(C(=O)N2CC(C)(C)OCC2(C)CO)cc2nc(NCc3cc(Cl)ccn3)oc12 (single isomer, unassigned) [Example 40]
Asked: Larger number for pIC50: P , or Q ? Your choice should be expressed through its label.
Given back: P
(P: 7.96, Q: 7.74)

Source listed as patent US20160108027A1.
